System: Clostridium sporogenes DSM 1664
Experiment: fold change of Tryptamine concentration vs plate DMSO controls (fold change (ratio)); higher = more amine produced, active = hit call of the paper (significant change in both replicates, either direction);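 for the amine columns active = adjusted P below 0.05 in both replicates with a change the same way and a mean fold change under 0.8 or over 1.25; inactive = the rest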
Details: incubation time: 27 h, anaerobic, 37 °C
Structures can show the parent of a compound that is named as a salt.
Please answer using one outcome listed in active, inactive

Input: Dear all, I need the recorded test outcome for CN(C)CCCOc1nn(Cc2ccccc2)c2ccccc12 [Benzydamine hydrochloride] (20 µM) , thank you.
Output: inactive

Input: Check CO[C@H]1/C=C/O[C@@]2(C)Oc3c(C)c(O)c4c(O)c(c5c(nc6cc(C)ccn65)c4c3C2=O)NC(=O)/C(C)=C\C=C\[C@H](C)[C@H](O)[C@@H](C)[C@@H](O)[C@@H](C)[C@H](OC(C)=O)[C@@H]1C [Rifaximin] (20 µM) too.
Output: active

Input: Proceed to CCC(=O)OCC(=O)[C@@]1(OC(=O)CC)[C@H](C)C[C@H]2[C@H]3[C@H]([C@@H](O)C[C@@]21C)[C@@]1(C)C=CC(=O)C=C1C[C@H]3Cl [Alclometasone dipropionate] (20 µM)
Output: inactive

Input: Field entry: NC(=O)c1cn(Cc2c(F)cccc2F)nn1 [Rufinamide] (20 µM)
Output: inactive

Input: Further, for Cc1cc(=O)n(-c2ccccc2)n1C [Antipyrine] (20 µM) ?
Output: inactive

Input: Also c1ccc2c(CC3=NCCN3)cccc2c1 [Naphazoline hydrochloride] (20 µM) , if possible.
Output: inactive

Input: Next compound: CC(=O)Oc1cc2c(s1)CCN(C(C(=O)C1CC1)c1ccccc1F)C2 (stereo not given) [Prasugrel] (20 µM)
Output: inactive

Input: Then COC(=O)Nc1nc2cc(C(=O)c3cccs3)ccc2[nH]1 [Nocodazole] (20 µM) ?
Output: inactive

Input: Next up: Cc1ccc(C)c(OCCCC(C)(C)C(=O)O)c1 [Gemfibrozil] (20 µM)
Output: inactive

Input: Entry N=C(N)c1ccc(OCCCCCOc2ccc(C(=N)N)cc2)cc1 [Pentamidine isethionate] (20 µM) please
Output: inactive

Input: How about CCC(=O)O[C@]1(C(=O)CCl)[C@@H](C)C[C@H]2[C@@H]3CCC4=CC(=O)C=C[C@]4(C)[C@@]3(F)[C@@H](O)C[C@@]21C [Clobetasol propionate] (20 µM) ?
Output: inactive

Input: Field entry: c1ccc2[nH]c(-c3cscn3)nc2c1 [Tiabendazole] (20 µM)
Output: inactive

Input: Same thing, different compound: Cn1cnc2c1c(=O)[nH]c(=O)n2C [Theobromine] (20 µM)
Output: inactive

Input: And then Clc1ccc(CSC(Cn2ccnc2)c2ccc(Cl)cc2Cl)cc1 (stereo not given) [Sulconazole nitrate] (20 µM) , what is it?
Output: inactive

Input: Try this compound next: Cc1nc2n(c(=O)c1CCN1CCC(c3noc4cc(F)ccc34)CC1)CCCC2O (stereo not given) [Paliperidone] (20 µM)
Output: inactive

Input: Then this compound: CCCSc1ccc2[nH]c(NC(=O)OC)nc2c1 [Albendazole] (20 µM)
Output: inactive

Input: Could you do the same for Nc1nc(F)nc2c1ncn2[C@@H]1O[C@H](CO)[C@@H](O)[C@@H]1O [Fludarabine] (20 µM) , please?
Output: inactive

Input: And then Cc1nnc(NS(=O)(=O)c2ccc(N)cc2)s1 [Sulfamethizole] (20 µM) , what is it?
Output: inactive

Input: For CC(=O)N[C@@H](CC(C)C)C(=O)O [N-Acetyl-L-leucine] (20 µM) then?
Output: inactive

Input: Another compound to look at: CCCC(=O)OCOC(=O)C1=C(C)NC(C)=C(C(=O)OC)C1c1cccc(Cl)c1Cl (stereo not given) [Clevidipine] (20 µM)
Output: inactive

The measured values listed here are drawn from the supplement of paper PMC12494721.
